Origin of measurements: PubChem BioAssay AID1159580

assay: chemical genetic growth profiling, strain panel (AID 1159580);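 also: tested at 20 µM; growth read once vehicle control cultures reached saturation at 30 °C; 1 = growth at the plate median or of vehicle wells; lower values mean less growth of the strain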; details: S. cerevisiae deletion strains, growth OD, locus YHR079C, strain IRE1, stronger effect = lower value
About 2,000 (36%) of roughly 5,500 compounds were called active. Another 18% or so got no clear call; they are omitted. Some of the results follow.
parameter-measured: normalized growth

{"columns": ["compound", "parameter-measured", "recorded-measurement"],
 "data": [
  ["C[C@]12CCC3c4ccc(O)cc4CCC3C1CC[C@@H]2O (stereo partly specified)", "normalized growth", 0.954],
  ["O=C1Nc2ccccc2/C1=C/c1ccc(Oc2ccccc2)nc1", "normalized growth", 0.836],
  ["O=C1Nc2ccccc2/C1=C\\c1c(Cl)cccc1Cl", "normalized growth", 0.901],
  ["CC(N)C12CC3CC(CC(C3)C1)C2 (stereo unspecified)", "normalized growth", 0.977],
  ["CC12CCC3c4ccc(OC(=O)c5ccccc5)cc4CCC3C1CCC2O (stereo unspecified)", "normalized growth", 1.05],
  ["Cc1ccc(C)n1-c1ccc(/C=C2/C(=O)Nc3ccccc32)cc1", "normalized growth", 0.832]
]}

----------
experiment: chemical genetic growth profiling, strain panel (AID 1159580);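 also: tested at 20 µM; growth read once vehicle control cultures reached saturation at 30 °C; 1 = growth at the plate median or of vehicle wells; lower values mean less growth of the strain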; conditions: S. cerevisiae deletion strains, growth OD, locus YML016C, strain PPZ1
About 2,000 (36%) of roughly 5,500 compounds were called active. About 18% were inconclusive and are not listed. Rule as the data show it: active = normalized growth mostly below about 0.91 (no sharp cut-off); inconclusive = no clear call, values can overlap the other calls; inactive = mostly above about 0.92. The list shows a part of the results.
Possible outcomes: active, inactive

{"columns": ["compound", "cat"],
 "data": [
  ["CC(CC(O)C1OC1(C)C)[C@@H]1CCC2(C)C3=CCC4C(C)(C)C(=O)CCC4(C)C3CC[C@@]12C (stereo partly drawn)", "inactive"],
  ["CC(=O)Oc1ccc2c(c1C(C)C)CCC1C(C)(C)CCC[C@]21C (stereo partly drawn)", "inactive"],
  ["O=C1C=C2C(=CCOC2O)O1 (stereo not drawn)", "inactive"],
  ["CC(C)c1c(O)ccc2c1CCC1[C@@](C)(C=O)CCC[C@]21C (stereo partly drawn)", "active"],
  ["COC(=O)c1c(C)cc(OC)cc1O", "inactive"],
  ["COc1ccc2c3c1OC1C(O)CC=C4C(C2)N(C)CCC431 (stereo not drawn)", "inactive"],
  ["CCc1cccc(CC)c1N(COC)C(=O)CCl", "inactive"],
  ["Cc1ccccc1OCC(O)CO (stereo not drawn)", "inactive"],
  ["CCCCCCCCCCCCCCCCCC(=O)OC(CC(=O)O)C[N+](C)(C)C (stereo not drawn)", "active"],
  ["CN1C(C)(C)CCCC1(C)C", "inactive"],
  ["CC(C1OC(C)(C)C(O)C1O)[C@@H]1CC[C@]2(C)C3=CCC4C(C)(C)C(=O)CC[C@]4(C)C3CC[C@@]12C (stereo partly drawn)", "inactive"],
  ["NC(=O)CN1CCCC1=O", "inactive"],
  ["CCOC(=O)c1c(C)cc(O)cc1O", "active"]
]}

----------
experiment: chemical genetic growth profiling, strain panel (AID 1159580);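 also: tested at 20 µM; growth read once vehicle control cultures reached saturation at 30 °C; 1 = growth at the plate median or of vehicle wells; lower values mean less growth of the strain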; conditions: S. cerevisiae deletion strains, growth OD, locus YGL253W, strain hxk2, stronger effect = lower value
About 2,000 (36%) of roughly 5,500 compounds were called active. Roughly 18% stayed inconclusive and do not appear here. Some of the results follow. Where a SMILES comes first, the peptide text is derived from it.
compounds and their reported normalized growth

{"columns": ["compound", "normalized growth"],
 "data": [
  ["C[C@@H]1O[C@@H](OC[C@H]2OC(Oc3c(-c4ccc(OCCO)c(OCCO)c4)oc4cc(OCCO)cc(O)c4c3=O)[C@H](O)[C@@H](O)[C@@H]2O)[C@H](O)[C@H](O)[C@H]1O (stereo partly drawn)", "0.965 (inactive)"],
  ["CC(C)N(CCC(C(N)=O)(c1ccccc1)c1ccccn1)C(C)C (stereo not drawn)", "0.0581 (active)"],
  ["COC(=O)[C@H](Cc1ccccc1)NC(=O)[C@@H](N)CC(=O)O (H-Asp-Phe-OMe)", "1 (inactive)"],
  ["COc1cc(OC)c2c(=O)c(OC)c(-c3ccc(OC)c(OC)c3)oc2c1", "1.02 (inactive)"],
  ["O=C(Cc1cccs1)NC1C(=O)N2C(C(=O)[O-])=C(C[n+]3ccccc3)CSC12 (stereo not drawn)", "0.999 (inactive)"],
  ["COc1cc(O)c2c(=O)c(O)c(-c3ccc(O)c(O)c3)oc2c1", "0.693 (active)"],
  ["COc1ccc(-c2oc3c(CC=C(C)C)c(O[C@@H]4O[C@H](CO)[C@@H](O)[C@H](O)[C@H]4O)cc(O)c3c(=O)c2O[C@@H]2O[C@@H](C)[C@H](O)[C@@H](O)[C@H]2O)cc1", "0.946 (inactive)"],
  ["CC(C)[N+](C)(CCC(C(N)=O)(c1ccccc1)c1ccccc1)C(C)C", "0.983 (inactive)"]
]}
